molecular target: HA-tagged human β2-adrenergic receptor (β2AR) (Homo sapiens, UniProt P07550); assay: arrestin-GFP localization (Fgrains) assay in U20S-β2AR/ArrGFP cells, isoproterenol stimulated; conditions: EC50, B2AR RT plate: room temperature, atmospheric CO2; 100 nM isoproterenol
Sequence (P07550 whole entry): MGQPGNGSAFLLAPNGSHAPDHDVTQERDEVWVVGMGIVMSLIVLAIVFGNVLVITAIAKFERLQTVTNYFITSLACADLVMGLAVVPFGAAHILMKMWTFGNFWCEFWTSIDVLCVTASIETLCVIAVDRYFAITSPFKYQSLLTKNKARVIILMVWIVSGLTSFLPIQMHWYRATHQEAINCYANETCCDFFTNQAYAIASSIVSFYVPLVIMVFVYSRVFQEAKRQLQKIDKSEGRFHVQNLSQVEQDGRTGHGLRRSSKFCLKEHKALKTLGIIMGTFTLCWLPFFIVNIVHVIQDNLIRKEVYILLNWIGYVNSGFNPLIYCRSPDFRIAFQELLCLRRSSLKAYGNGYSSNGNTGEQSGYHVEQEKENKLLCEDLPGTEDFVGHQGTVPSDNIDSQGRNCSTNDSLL
metric-name: EC50 (µM)

[[record]]
molecule = "C[n+]1cc2c3c(ccc2c2ccc4cc5c(cc4c21)OCO5)OCO3 [Sanguinarine Chloride (LOPAC), Sanguinarine Chloride]"
tested_on = "HA-tagged human β2-adrenergic receptor (β2AR) (Homo sapiens, UniProt P07550)"
observed_measurement = 2.8

[[record]]
molecule = "C[n+]1cc2c3c(ccc2c2ccc4cc5c(cc4c21)OCO5)OCO3 [Sanguinarine Chloride (S5890), Sanguinarine Chloride]"
tested_on = "HA-tagged human β2-adrenergic receptor (β2AR) (Homo sapiens, UniProt P07550)"
observed_measurement = 7.7


###

Below, each entry is listed with its recorded Min (fitted minimum Fgrains).
target: HA-tagged human β2-adrenergic receptor (β2AR) (Homo sapiens, UniProt P07550); assay: arrestin-GFP localization (Fgrains) assay in U20S-β2AR/ArrGFP cells, isoproterenol stimulated; conditions: B2AR RT plate: room temperature, atmospheric CO2; 100 nM isoproterenol
metric-name: Min (fitted minimum Fgrains)

[[record]]
molecule = "NCCCn1cc(C2=C(c3c[nH]c4ccccc34)C(=O)NC2=O)c2ccccc21 [Bisindolylmaleimide III]"
tested_on = "HA-tagged human β2-adrenergic receptor (β2AR) (Homo sapiens, UniProt P07550)"
metric_name = "Min (fitted minimum Fgrains)"
observed_measurement = 212

[[record]]
molecule = "O=C1NC(=O)C(c2cn(CCCN3CCNCC3)c3ccccc23)=C1c1c[nH]c2ccccc12 [Bisindolylmaleimide VII]"
tested_on = "HA-tagged human β2-adrenergic receptor (β2AR) (Homo sapiens, UniProt P07550)"
metric_name = "Min (fitted minimum Fgrains)"
observed_measurement = 148

[[record]]
molecule = "Cn1cc(C2=C(c3c4n(c5ccccc35)CCC(CN)C4)C(=O)NC2=O)c2ccccc21 (centres unmarked) [RO-31-8425]"
tested_on = "HA-tagged human β2-adrenergic receptor (β2AR) (Homo sapiens, UniProt P07550)"
metric_name = "Min (fitted minimum Fgrains)"
observed_measurement = 60

[[record]]
molecule = "Cn1cc(C2=C(c3cn(CCCN)c4ccccc34)C(=O)NC2=O)c2ccccc21 [RO-31-7549]"
tested_on = "HA-tagged human β2-adrenergic receptor (β2AR) (Homo sapiens, UniProt P07550)"
metric_name = "Min (fitted minimum Fgrains)"
observed_measurement = 4

[[record]]
molecule = "C[n+]1cc2c3c(ccc2c2ccc4cc5c(cc4c21)OCO5)OCO3 [Sanguinarine Chloride (S5890), Sanguinarine Chloride]"
tested_on = "HA-tagged human β2-adrenergic receptor (β2AR) (Homo sapiens, UniProt P07550)"
metric_name = "Min (fitted minimum Fgrains)"
observed_measurement = 61

[[record]]
molecule = "CN1CCCC1CCn1cc(C2=C(c3c[nH]c4ccccc34)C(=O)NC2=O)c2ccccc21 (centres unmarked) [Bisindolylmaleimide II]"
tested_on = "HA-tagged human β2-adrenergic receptor (β2AR) (Homo sapiens, UniProt P07550)"
metric_name = "Min (fitted minimum Fgrains)"
observed_measurement = "−508"

[[record]]
molecule = "C[n+]1cc2c3c(ccc2c2ccc4cc5c(cc4c21)OCO5)OCO3 [Sanguinarine Chloride (LOPAC), Sanguinarine Chloride]"
tested_on = "HA-tagged human β2-adrenergic receptor (β2AR) (Homo sapiens, UniProt P07550)"
metric_name = "Min (fitted minimum Fgrains)"
observed_measurement = 76

[[record]]
molecule = "Cl.NCCCn1cc(C2=C(c3c[nH]c4ccccc34)C(=O)NC2=O)c2ccccc21 [Bisindolylmaleimide III, Hydrochloride]"
tested_on = "HA-tagged human β2-adrenergic receptor (β2AR) (Homo sapiens, UniProt P07550)"
metric_name = "Min (fitted minimum Fgrains)"
observed_measurement = 237


###

biological target: HA-tagged human β2-adrenergic receptor (β2AR) (Homo sapiens, UniProt P07550); test: arrestin-GFP localization (Fgrains) assay in U20S-β2AR/ArrGFP cells, isoproterenol stimulated; details: B2AR RT plate: room temperature, atmospheric CO2; 100 nM isoproterenol; Hydrochloride
metric-name: EC50

[[record]]
compound = "Cl.NCCCn1cc(C2=C(c3c[nH]c4ccccc34)C(=O)NC2=O)c2ccccc21 [Bisindolylmaleimide III, Hydrochloride]"
tested_on = "HA-tagged human β2-adrenergic receptor (β2AR) (Homo sapiens, UniProt P07550)"
metric_name = "EC50"
observed_measurement = "34.9 µM"


###

Listed here are compounds together with their documented Max Rsp (change between fitted maximum and fitted minimum Fgrains).
target: human vasopressin V2 receptor (V2R) (Homo sapiens, UniProt P30518); test: arrestin-GFP localization (Fgrains) assay in U20S-V2R/ArrGFP cells, arginine vasopressin stimulated; format: cell-based; settings: V2R CO2 plate: 37° C., 5% CO2/95% O2; 100 nM arginine vasopressin
Sequence (P30518 whole entry): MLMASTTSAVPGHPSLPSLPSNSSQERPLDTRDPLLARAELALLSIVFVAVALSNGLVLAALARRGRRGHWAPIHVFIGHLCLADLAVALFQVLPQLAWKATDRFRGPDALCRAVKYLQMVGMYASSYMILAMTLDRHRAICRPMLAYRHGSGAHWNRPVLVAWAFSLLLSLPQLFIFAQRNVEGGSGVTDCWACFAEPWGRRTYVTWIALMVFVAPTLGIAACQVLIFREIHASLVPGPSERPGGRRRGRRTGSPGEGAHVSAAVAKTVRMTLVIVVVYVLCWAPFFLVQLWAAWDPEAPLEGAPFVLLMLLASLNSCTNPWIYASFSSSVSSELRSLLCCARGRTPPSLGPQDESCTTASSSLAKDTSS
metric-name: Max Rsp (change between fitted maximum and fitted minimum Fgrains)

[[record]]
compound = "Cl.NCCCn1cc(C2=C(c3c[nH]c4ccccc34)C(=O)NC2=O)c2ccccc21 [Bisindolylmaleimide III, Hydrochloride]"
observed_measurement = 455

[[record]]
compound = "C[n+]1cc2c3c(ccc2c2ccc4cc5c(cc4c21)OCO5)OCO3 [Sanguinarine Chloride (S5890), Sanguinarine Chloride]"
observed_measurement = 546

[[record]]
compound = "C[n+]1cc2c3c(ccc2c2ccc4cc5c(cc4c21)OCO5)OCO3 [Sanguinarine Chloride (LOPAC), Sanguinarine Chloride]"
observed_measurement = 519

[[record]]
compound = "O=C1NC(=O)C(c2c[nH]c3ccccc23)=C1c1c[nH]c2ccccc12 [Bisindolylmaleimide IV]"
observed_measurement = 277

[[record]]
compound = "CN1CCCC1CCn1cc(C2=C(c3c[nH]c4ccccc34)C(=O)NC2=O)c2ccccc21 (stereo not drawn) [Bisindolylmaleimide II]"
observed_measurement = 420

[[record]]
compound = "Cn1cc(C2=C(c3c4n(c5ccccc35)CCC(CN)C4)C(=O)NC2=O)c2ccccc21 (stereo not drawn)"
observed_measurement = 532

[[record]]
compound = "NCCCn1cc(C2=C(c3c[nH]c4ccccc34)C(=O)NC2=O)c2ccccc21 [Bisindolylmaleimide III]"
observed_measurement = 298

[[record]]
compound = "Cn1cc(C2=C(c3cn(CCCN)c4ccccc34)C(=O)NC2=O)c2ccccc21"
observed_measurement = 357

[[record]]
compound = "O=C1NC(=O)C(c2cn(CCCN3CCNCC3)c3ccccc23)=C1c1c[nH]c2ccccc12 [Bisindolylmaleimide VII]"
observed_measurement = 336


###

Catalogue of EC50 readings, one per entry.
target: HA-tagged human β2-adrenergic receptor (β2AR) (Homo sapiens); assay: arrestin-GFP localization (Fgrains) assay in U20S-β2AR/ArrGFP cells, isoproterenol stimulated; details: B2AR CO2 plate: 37° C., 5% CO2/95% O2; 100 nM isoproterenol
metric-name: EC50 (µM)

[[record]]
molecule = "NCCCn1cc(C2=C(c3c[nH]c4ccccc34)C(=O)NC2=O)c2ccccc21 [Bisindolylmaleimide III]"
tested_on = "HA-tagged human β2-adrenergic receptor (β2AR) (Homo sapiens)"
metric_name = "EC50"
observed_measurement = 11.1

[[record]]
molecule = "Cn1cc(C2=C(c3cn(CCCN)c4ccccc34)C(=O)NC2=O)c2ccccc21"
tested_on = "HA-tagged human β2-adrenergic receptor (β2AR) (Homo sapiens)"
metric_name = "EC50"
observed_measurement = 9.4

[[record]]
molecule = "O=C1NC(=O)C(c2cn(CCCN3CCNCC3)c3ccccc23)=C1c1c[nH]c2ccccc12 [Bisindolylmaleimide VII]"
tested_on = "HA-tagged human β2-adrenergic receptor (β2AR) (Homo sapiens)"
metric_name = "EC50"
observed_measurement = 21.2

[[record]]
molecule = "CN1CCCC1CCn1cc(C2=C(c3c[nH]c4ccccc34)C(=O)NC2=O)c2ccccc21 (centres unmarked) [Bisindolylmaleimide II]"
tested_on = "HA-tagged human β2-adrenergic receptor (β2AR) (Homo sapiens)"
metric_name = "EC50"
observed_measurement = 62.1

[[record]]
molecule = "Cn1cc(C2=C(c3c4n(c5ccccc35)CCC(CN)C4)C(=O)NC2=O)c2ccccc21 (centres unmarked)"
tested_on = "HA-tagged human β2-adrenergic receptor (β2AR) (Homo sapiens)"
metric_name = "EC50"
observed_measurement = 8.8


###

target: human vasopressin V2 receptor (V2R) (Homo sapiens, UniProt P30518); assay: arrestin-GFP localization (Fgrains) assay in U20S-V2R/ArrGFP cells, arginine vasopressin stimulated; type: cell-based; conditions: V2R CO2 plate: 37° C., 5% CO2/95% O2; 100 nM arginine vasopressin
metric-name: Min (fitted minimum Fgrains)

[[record]]
compound = "CN1CCCC1CCn1cc(C2=C(c3c[nH]c4ccccc34)C(=O)NC2=O)c2ccccc21 (stereo not shown) [Bisindolylmaleimide II]"
observed_measurement = 159

[[record]]
compound = "O=C1NC(=O)C(c2c[nH]c3ccccc23)=C1c1c[nH]c2ccccc12 [Bisindolylmaleimide IV]"
observed_measurement = 292

[[record]]
compound = "C[n+]1cc2c3c(ccc2c2ccc4cc5c(cc4c21)OCO5)OCO3 [Sanguinarine Chloride (LOPAC), Sanguinarine Chloride]"
observed_measurement = 63

[[record]]
compound = "Cn1cc(C2=C(c3c4n(c5ccccc35)CCC(CN)C4)C(=O)NC2=O)c2ccccc21 (stereo not shown)"
observed_measurement = 60


Provenance of the data: patent US7163800B2
